# System: SU-DHL-5 (B-Cell Non-Hodgkin's Lymphoma);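 note: after 72 h of two-drug dosing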
# Assay method text: Bliss excess, mean over the matrix (fraction); higher = more synergy
Property label: Bliss excess
Just the number, please.

// below: answered compounds
Compound: COc1cccc(OCCCN)c1-c1cc(Nc2cnc(C#N)cn2)n[nH]1 [Prexasertib] + CN(C)CCCOc1ccc(-c2ccc3ncc4c(c3c2)n(C2CCOCC2)c(=O)n4C)cn1 [AZD0156] (first compound max 1 µM, 7x7, partner max 1 µM)
Property label: Bliss excess
Data value: -0.0089
//
Compound: COc1cccc2c1C(=O)c1c(O)c3c(c(O)c1C2=O)C[C@@](O)(C(=O)CO)C[C@@H]3O[C@H]1C[C@H](N)[C@H](O)[C@H](C)O1 [Doxorubicin] + Cc1cc2ncnn2cc1Nc1ncc2c(n1)n(C1CCOCC1)c(=O)n2C [AZD7648] (first compound max 1 µM, 7x7, partner max 10 µM)
Property label: Bliss excess
Data value: 0.111
//
Compound: CC(=O)c1c(C)c2cnc(Nc3ccc(N4CCNCC4)cn3)nc2n(C2CCCC2)c1=O [Palbociclib] + CN(CC[C@H](CSC1=CC=CC=C1)NC2=C(C=C(C=C2)S(=O)(=O)NC(=O)C3=CC=C(C=C3)N4CCC(CC4)[C@H](C5=CC=CC=C5C6=CC=C(C=C6)Cl)O)S(=O)(=O)C(F)(F)F)CCO [AZD4320] (first compound max 10 µM, 7x7, partner max 1 µM)
Property label: Bliss excess
Data value: -0.0381

Query :: Suppose we examine the compound C[C@@H]1COCCN1c1cc(C2([S@](C)(=N)=O)CC2)nc(-c2ccnc3[nH]ccc23)n1 [AZD6738] + O=C(c1cc(Cc2n[nH]c(=O)c3ccccc23)ccc1F)N1CCN(C(=O)C2CC2)CC1 [Olaparib] (first compound max 10 µM, 7x7, partner max 10 µM) ; what Bliss excess value has been reported?
Result :: 0.002

Query :: Suppose we examine the compound CC(=O)c1c(C)c2cnc(Nc3ccc(N4CCNCC4)cn3)nc2n(C2CCCC2)c1=O [Palbociclib] + CC1(C)CCC(CN2CCN(c3ccc(C(=O)NS(=O)(=O)c4ccc(NCC5CCOCC5)c([N+](=O)[O-])c4)c(Oc4cnc5[nH]ccc5c4)c3)CC2)=C(c2ccc(Cl)cc2)C1 [Venetoclax] (first compound max 10 µM, 7x7, partner max 1 µM) ; what Bliss excess value has been reported?
Result :: -0.0201

Query :: Suppose we examine the compound NC1(C(=O)N[C@@H](CCO)c2ccc(Cl)cc2)CCN(c2ncnc3[nH]ccc23)CC1 [Capivasertib] + CC(C)n1c(=O)n(C)c2cnc3cc(F)c(-c4ccc(OCCCN5CCCCC5)nc4)cc3c21 [AZD1390] (first compound max 10 µM, 7x7, partner max 0.3 µM) ; what Bliss excess value has been reported?
Result :: -0.0114

Query :: Suppose we examine the compound CCN(CCO)CCCOc1ccc2c(Nc3cc(CC(=O)Nc4cccc(F)c4)[nH]n3)ncnc2c1 [AZD2811] + C[C@@H]1COCCN1C2=NC(=NC(=C2)C3(CC3)[S@](=N)(=O)C)C4=C5C=CNC5=NC=C4 [AZD6738] (first compound max 1 µM, 7x7, partner max 10 µM) ; what Bliss excess value has been reported?
Result :: -0.0382
